// data source = PubChem BioAssay (NCI)

tested on: PC-3 prostate; assay: NCI tumour cell line growth inhibition, 48 h
metric: GI50

Given the molecule Cc1ccc(C2CC(c3cccc(Nc4ccncc4)c3)=NN2c2cc(Cl)cc(Cl)c2)cc1 (configuration not stated) and test system PC-3 prostate, the measured GI50 is 1580 nM

Given the molecule CCOC(=O)C(=Cc1ccc(-c2ccccc2)cc1)C(=O)OCC and test system PC-3 prostate, the measured GI50 is 2510 nM

Given the molecule COc1ccc2cnc(N)c(C#Cc3cc(C(=O)Nc4ccc(CN5CCN(C)CC5)c(C(F)(F)F)c4)cnc3C)c2c1 and test system PC-3 prostate, the measured GI50 is 2690 nM

Given the molecule CC(=O)Oc1cn(-c2ccc(Cl)cc2)nc1C1=NN(C(C)=O)C(c2ccc(F)cc2F)O1 (configuration not stated) and test system PC-3 prostate, the measured GI50 is 27900 nM

Given the molecule C[C@H](Nc1ccc2c(c1)OCCn1cc(N3C(=O)OC[C@H]3C(F)F)nc1-2)C(N)=O and test system PC-3 prostate, the measured GI50 is 3810 nM

Given the molecule COc1ccc2c(c1)c(-c1nonc1-c1cn(C)c3ccccc13)cn2C and test system PC-3 prostate, the measured GI50 is 481 nM

Given the molecule c1ccc(-c2n(Cc3ccc4ccccc4n3)cc[n+]2Cc2ccc3ccccc3n2)cc1 and test system PC-3 prostate, the measured GI50 is 2640 nM

Given the molecule COc1ccc(C(=O)N2N=C(c3ccc(Br)cc3)CC2c2cn(-c3ccccc3)nc2-c2ccccc2)cc1 (configuration not stated) and test system PC-3 prostate, the measured GI50 is > 50000 nM

Given the molecule Cc1cc2nc(CS)[nH]c2cc1C and test system PC-3 prostate, the measured GI50 is 16100 nM

Given the molecule Oc1cc2ccccc2cc1-c1n[nH]c(=S)n1CCc1ccccc1 and test system PC-3 prostate, the measured GI50 is 20600 nM

Given the molecule Fc1cc(-c2csc3n[nH]c(=S)n23)c(Cl)cc1Cl and test system PC-3 prostate, the measured GI50 is 31400 nM

Given the molecule CCOc1cc2ncc(C#N)c(Nc3ccc(F)c(Cl)c3)c2cc1NC(=O)CC1CCSS1 (configuration not stated) and test system PC-3 prostate, the measured GI50 is 629 nM

---

Record: GI50 reported on SK-MEL-2 melanoma.

Summary for this compound, CCOc1cc2ncc(C#N)c(Nc3ccc(F)c(Cl)c3)c2cc1NC(=O)CC1CCSS1 (stereo unspecified) : GI50 is 0.697 µM

Summary for this compound, CCOC(=O)c1cnc2c(C)cc(C)cc2c1NCCCN(C)C : GI50 is 9.7 µM

Summary for this compound, COc1cc(O)c2c3c(ccnc13)-c1ccccc1N2 : GI50 is 21.8 µM

Summary for this compound, C=C1CC[C@@H]2C(C)(C)[C@H](O)CC[C@@]2(C)[C@@H]1COc1ccc2ccc(=O)oc2c1 : GI50 is 23.9 µM

Summary for this compound, Cc1ccc(Cl)cc1Nc1nc(C(F)(F)F)ccc1C(N)=O : GI50 is 20.4 µM

Summary for this compound, COc1ccc2c3c([nH]c2c1)C(=O)c1nc(C)ccc1C3=O : GI50 is 7.04 µM

---

system: BT-549 breast; assay: NCI tumour cell line growth inhibition, 48 h
metric: TGI (µM)
Give the quantity in µM, number only.

Summary for this compound, COc1cc(/C=N/NC(=O)c2c(Cl)c(Cl)c(Cl)c(Cl)c2-c2nc3ccccc3[nH]2)ccc1O : TGI is 67.2

Summary for this compound, CN(C)C(=S)NC(=S)Nc1ccc2ccccc2c1 : TGI is 53.9

Summary for this compound, O=C1Nc2ccccc2/C1=C/C(=N/c1nnc(-c2ccc(Cl)cc2)s1)c1ccccc1 : TGI is 3.66

---

test system: HOP-92 NSCLC; assay: NCI tumour cell line growth inhibition, 48 h
Where a SMILES comes first, the peptide text is derived from it. [ ]: non-standard residue; d: D form. The star is where a group is joined. Chg = N[CH](C(=O)O)C1CCCCC1; Cbz = O=C(OCc1ccccc1)*; OBn = c1ccc(CO*)cc1
I'd appreciate it if you could supply TGI values for the items below.

Summary for this compound, COc1ccc(/C=C/C(=O)c2cc(C(=O)O)c(OC)cc2OC)cc1OC : TGI is > 100 µM

Summary for this compound, O=C1C2=Cc3ccccc3OC2(O)Oc2cc(O)cc(O)c21 (stereo unspecified) : TGI is > 100 µM

Summary for this compound, COc1cc(/C=N/NC(=O)c2c(Cl)c(Cl)c(Cl)c(Cl)c2-c2nc3ccccc3[nH]2)ccc1O : TGI is 33.4 µM

Summary for this compound, Clc1ccc(OCc2nnc3n2N=C(c2ccccc2)CS3)cc1 : TGI is 36.7 µM

Summary for this compound, CCOC(=O)/C=C(\C)Sc1cc(O)c2ccccc2c1O : TGI is 62.4 µM

Summary for this compound, COP(=O)(OC)/C(=C\C1=CN(C(c2ccccc2)(c2ccccc2)c2ccccc2)CN1)NC=O : TGI is 23 µM

Summary for this compound, c1ccc(-c2n(Cc3ccc4ccccc4n3)cc[n+]2Cc2ccc3ccccc3n2)cc1 : TGI is 2.47 µM

Summary for this compound, COc1ccc(-n2cnc3c(N)nc(N)nc32)cc1 : TGI is > 100 µM

Summary for this compound, Cc1cc2nc(CS)[nH]c2cc1C : TGI is 76.3 µM

Summary for this compound, COC(=O)c1oc2c(C(C)=O)c(OCCN3CCOCC3)c(OC)cc2c1C : TGI is > 100 µM

Summary for this compound, CC(C)=NNC1=NC(C)(C)P(=O)(NNc2ncccn2)S1 (stereo unspecified) : TGI is > 100 µM

Summary for this compound, Fc1cc(-c2csc3n[nH]c(=S)n23)c(Cl)cc1Cl : TGI is 55.3 µM

Summary for this compound, COc1ccc(NC(C)=O)cc1N1C(=O)/C(=C\c2cccc(Oc3ccccc3)c2)S(=O)(=O)C1c1ccccc1 (stereo unspecified) : TGI is > 100 µM

Summary for this compound, COC(=O)C(NC(=O)C(CC(=O)OCc1ccccc1)NC(=O)OCc1ccccc1)C1CCCCC1 (stereo unspecified) (Cbz-Asp(OBn)-[Chg]-OMe; configuration not given here) : TGI is > 100 µM

Summary for this compound, CC(C)NC(=O)OCc1c(COC(=O)NC(C)C)n(C)c2c1ccc1ccsc12 : TGI is 45.4 µM

Summary for this compound, Nc1ncnc2c1ncn2C1OC(CSC(F)F)C(O)C1O (stereo unspecified) : TGI is > 100 µM

Summary for this compound, CCn1cc(C2NC(=O)c3ccccc3N2)c2cccc(C)c21 (stereo unspecified) : TGI is > 78.7 µM

Summary for this compound, CN(C)CCN(C)CCC(=O)/C=C/c1ccccc1 : TGI is 56.9 µM

Summary for this compound, COc1ccc2c3c([nH]c2c1)C(=O)c1nc(C)ccc1C3=O : TGI is > 100 µM

Summary for this compound, O=c1cc(-c2ccccc2)oc2cc(OCc3cn(Cc4ccc(F)cc4)nn3)cc(OCc3cn(Cc4ccc(F)cc4)nn3)c12 : TGI is 5.52 µM

Summary for this compound, CC(=O)Oc1c(C)cc2c(c1C)C(C)CN2C(C)=O (stereo unspecified) : TGI is > 100 µM

---

test system: CCRF-CEM leukemia; experiment: NCI tumour cell line growth inhibition, 48 h
metric: TGI (µM)
Give the quantity in µM, number only.

Given the compound CN1CCN(CCCOc2ccc3ncnc(Nc4ccc(OCc5cccc(F)c5)c(Cl)c4)c3c2)CC1 and test system CCRF-CEM leukemia, the measured TGI is 3.53

Given the compound N#C/C(=C/c1cccc2ccccc12)C(=O)c1ccccc1 and test system CCRF-CEM leukemia, the measured TGI is 39

Given the compound O=C1CNN=C(CSc2nc3ccc(I)cc3c(=O)n2Cc2ccccc2)N1 and test system CCRF-CEM leukemia, the measured TGI is 50.5

Given the compound CCOc1c(OC)cc(C2c3cc4c(c(OCC)c3CC3COC(=O)C32)OCO4)cc1OC (centres undefined) and test system CCRF-CEM leukemia, the measured TGI is 30.1

Given the compound c1ccc(CNc2ccc3[nH]c4cnccc4c3c2)cc1 and test system CCRF-CEM leukemia, the measured TGI is 42.5

---

I'd appreciate it if you could supply TGI values for the items below.
system: SR leukemia; test: NCI tumour cell line growth inhibition, 48 h
Give the quantity in µM, number only.

Summary for this molecule, C=C[C@]1(C)CC(O)C2C(=C)C(=O)OC2[C@H]1C(=C)C=O (stereo not given in full) : TGI is 20

Summary for this molecule, Cc1cc(Cl)ccc1Nc1nc(C(F)(F)F)ccc1C(=O)N/N=C/c1cccc(O)c1 : TGI is 4.49

Summary for this molecule, CC(C)N(C(=O)C12C3(C(=O)OC(C)(C)C)C4C5(C#N)C3C1(C(=O)OC(C)(C)C)C5C42C(=O)OC(C)(C)C)C(C)C (stereo not given) : TGI is 69.6

Summary for this molecule, COc1ccc(C(=O)N2N=C(c3ccc(Br)cc3)CC2c2cn(-c3ccccc3)nc2-c2ccccc2)cc1 (stereo not given) : TGI is 16.2

Summary for this molecule, O=S(=O)(Nc1cccc(Cl)c1)c1ccc(-c2cnc(C3CC3)o2)cc1 : TGI is 32.4

Summary for this molecule, COc1ccc(-c2cc(-c3ccccc3)nc(N)c2-c2ccc3ccccc3c2)cc1 : TGI is 7.31

Summary for this molecule, COc1ccc(SS(=O)(=O)c2ccc(OC)cc2)cc1 : TGI is 61.4

Summary for this molecule, Oc1ccc(-c2nc3ccc(F)cc3s2)cc1 : TGI is 53.4

Summary for this molecule, CCCCCOc1ccc(Nc2c(O)c3c(c(O)c2Cl)C(=O)C=CC3=O)cc1 : TGI is 6.99

Summary for this molecule, CC(C)c1ccc(COCc2cc(CN3CCCC3)c(O)c3ncccc23)cc1 : TGI is 2.08
